# assayed.target: T1, Mcl-1, biotinylated (C-terminal avi-6His) (human, UniProt Q07820 1-350, biotin (enzymatic, BirA))
# T1 chain: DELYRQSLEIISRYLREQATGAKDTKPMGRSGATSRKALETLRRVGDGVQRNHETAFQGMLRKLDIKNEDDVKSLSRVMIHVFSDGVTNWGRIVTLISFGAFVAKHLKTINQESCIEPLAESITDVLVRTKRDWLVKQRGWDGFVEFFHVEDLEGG
# experiment.notes: BLI
Give Kd for every item shown.

F-CDP01 (Bfl-1-targeting computationally designed protein) (designed binder) ADPKKVLDKAKDQAENRVRELKQKLEELYKEARKLDLTQEMRKKLQYAAIGAMLAAIGDILNAIMQAKQEADKLKKAGLVNSQQLDELKRRLEELKEEALRKAHDYGSEFYLKLEY = 4.6 nM

For the next question, use this binder.
// Kd value for F-ECM04 (enriched combinatorial mutant of F-CDP01) (designed binder) ADPKKVLDKAKDQAENRVRELKQKLEELYKEARKLDLTQEMRKKLEVAALGAVLAAHGDILNAIMQAKEEADKLKKAGLVNSQQLDELKRRLEELKEEALRKASDYGKEFHLKRRY : 300 nM
